system_name: SIRT2 (Homo sapiens (Human), UniProt Q8IXJ6)
Sequence (Q8IXJ6 whole entry): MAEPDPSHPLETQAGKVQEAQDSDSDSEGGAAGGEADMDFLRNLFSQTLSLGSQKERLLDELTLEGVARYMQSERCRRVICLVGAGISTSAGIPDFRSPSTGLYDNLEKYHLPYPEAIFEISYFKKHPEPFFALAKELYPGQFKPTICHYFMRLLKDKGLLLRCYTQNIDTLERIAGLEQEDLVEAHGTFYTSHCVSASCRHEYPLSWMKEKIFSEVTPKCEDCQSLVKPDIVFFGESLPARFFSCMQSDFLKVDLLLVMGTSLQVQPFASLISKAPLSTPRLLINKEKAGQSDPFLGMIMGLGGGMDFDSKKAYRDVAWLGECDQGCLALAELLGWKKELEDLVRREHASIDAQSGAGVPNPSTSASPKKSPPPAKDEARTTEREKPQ
experiment: SIRT2 inhibition assay (Fluor de Lys fluorescence-based assay kit)
Format: biochemical
assay_context: 60 μM compound; human recombinant enzyme; read-out: SirT2 (% inhib at 60 μM)
Structures can show the parent of a compound that is named as a salt.
Some compounds, each annotated with its measured inhibition at 60 µM.
measured_metric: inhibition at 60 µM (%)

>>> measured("CN(C)CCCCC(=O)Nc1ccc(NC(=S)NC(=O)c2ccc(Br)cc2)cc1 [Compound B5, hydrochloride]")
47.7
>>> measured("CN(C)CCCCC(=O)Nc1ccc(NC(=S)NC(=O)c2ccc(N(C)C)cc2)cc1 [Compound 332a, hydrochloride]")
61.5
>>> measured("CC(C)c1ccc(C(=O)NC(=S)Nc2ccc(NC(=O)CCCCN(C)C)cc2)cc1 [Compound 331a, hydrochloride]")
78.4
>>> measured("CCCCOc1c(Cl)cc(C(=O)NC(=S)Nc2ccc(NC(=O)CCCCN(C)C)cc2)cc1Cl [Compound 392a, hydrochloride]")
96.3
>>> measured("CN(C)CCCCC(=O)Nc1ccc(NC(=S)NC(=O)c2cc(Cl)cc(Cl)c2)cc1 [Compound 360a, hydrochloride]")
49.9
>>> measured("CN(C)CCCCC(=O)Nc1ccc(NC(=S)NC(=O)c2ccccc2)cc1 [Compound B4, hydrochloride]")
43.7
>>> measured("COc1ccc(C(=O)NC(=S)Nc2ccc(NC(=O)CCCCN(C)C)cc2)cc1Cl [Compound 350a, hydrochloride]")
37.8
>>> measured("CCOc1c(Cl)cc(C(=O)NC(=S)Nc2ccc(NC(=O)CCCCN(C)C)cc2)cc1Cl [Compound 391a, hydrochloride]")
87.9
>>> measured("COc1ccccc1C(=O)NC(=S)Nc1ccc(NC(=O)CCCCN(C)C)cc1 [Compound A3, hydrochloride]")
66.8
>>> measured("COc1ccc(C(=O)NC(=S)Nc2ccc(NC(=O)CCCCN(C)C)cc2)cc1 [318a A3, hydrochloride]")
51
>>> measured("CN(C)CCCCC(=O)Nc1ccc(NC(=S)NC(=O)c2cccc(Cl)c2)cc1 [Compound A5, hydrochloride]")
57.9
>>> measured("Cc1cc(C(=O)NC(=S)Nc2ccc(NC(=O)CCCCN(C)C)cc2)ccc1Br [Compound C5, hydrochloride]")
77.1

====

system_name: SIRT1 (Homo sapiens (Human), UniProt Q96EB6)
Sequence (Q96EB6 whole entry): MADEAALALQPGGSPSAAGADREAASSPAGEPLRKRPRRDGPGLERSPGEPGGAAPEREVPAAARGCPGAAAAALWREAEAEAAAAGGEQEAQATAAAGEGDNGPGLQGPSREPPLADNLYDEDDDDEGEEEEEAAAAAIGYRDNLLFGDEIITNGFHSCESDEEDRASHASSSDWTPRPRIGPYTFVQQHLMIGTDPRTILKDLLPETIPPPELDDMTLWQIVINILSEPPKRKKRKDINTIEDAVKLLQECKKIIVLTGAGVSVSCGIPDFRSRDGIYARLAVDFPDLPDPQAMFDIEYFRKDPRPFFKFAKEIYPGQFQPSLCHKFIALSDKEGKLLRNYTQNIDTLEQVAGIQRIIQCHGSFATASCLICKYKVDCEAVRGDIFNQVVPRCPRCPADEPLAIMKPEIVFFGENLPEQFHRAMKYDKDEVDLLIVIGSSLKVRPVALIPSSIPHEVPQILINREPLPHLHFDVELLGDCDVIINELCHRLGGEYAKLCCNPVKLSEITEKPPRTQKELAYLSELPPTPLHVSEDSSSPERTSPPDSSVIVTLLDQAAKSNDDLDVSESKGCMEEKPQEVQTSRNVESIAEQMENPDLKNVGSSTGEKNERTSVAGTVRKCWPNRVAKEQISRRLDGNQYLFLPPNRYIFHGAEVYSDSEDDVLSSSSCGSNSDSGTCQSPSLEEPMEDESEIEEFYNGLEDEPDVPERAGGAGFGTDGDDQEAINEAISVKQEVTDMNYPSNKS
experiment: SIRT1 inhibition assay (Fluor de Lys fluorescence-based assay kit)
Assay type: biochemical
assay_context: 60 μM compound; human recombinant enzyme; read-out: SirT1 (% inhib at 60 μM)
Where a name gives a salt, the structure may show the parent alone.
Kindly return Satisfied if reported inhibition at 60 µM is no lower than 30%; return Not satisfied if it is lower.

>>> label_class("Cc1ccccc1C(=O)NC(=S)Nc1ccc(NC(=O)CCCCN(C)C)cc1 [Compound A1, hydrochloride]")
"Not satisfied"
>>> label_class("CCOc1c(Cl)cc(C(=O)NC(=S)Nc2ccc(NC(=O)CCCCN(C)C)cc2)cc1Cl [Compound 391a, hydrochloride]")
"Satisfied"
>>> label_class("CN(C)CCCCC(=O)Nc1ccc(NC(=S)NC(=O)c2ccc(C(C)(C)C)c(Br)c2)cc1 [Compound 361a, hydrochloride]")
"Satisfied"
>>> label_class("CCCCOc1c(Cl)cc(C(=O)NC(=S)Nc2ccc(NC(=O)CCCCN(C)C)cc2)cc1Cl [Compound 392a, hydrochloride]")
"Satisfied"
>>> label_class("CN(C)CCCCC(=O)Nc1ccc(NC(=S)NC(=O)c2cc(F)c(F)c(F)c2)cc1 [Compound D1, hydrochloride]")
"Not satisfied"
>>> label_class("COc1ccc(C(=O)NC(=S)Nc2ccc(NC(=O)CCCCN(C)C)cc2)cc1Cl [Compound 350a, hydrochloride]")
"Not satisfied"
>>> label_class("CN(C)CCCCC(=O)Nc1ccc(NC(=S)NC(=O)c2ccc(Cl)c(Cl)c2)cc1 [Compound 311d, hydrochloride]")
"Not satisfied"
>>> label_class("COc1ccc(C(=O)NC(=S)Nc2ccc(NC(=O)CCCCN(C)C)cc2)cc1 [318a A3, hydrochloride]")
"Satisfied"
>>> label_class("CCCCc1ccc(C(=O)NC(=S)Nc2ccc(NC(=O)CCCCN(C)C)cc2)cc1 [Compound 345b, hydrochloride]")
"Satisfied"
>>> label_class("CC(C)c1ccc(C(=O)NC(=S)Nc2ccc(NC(=O)CCCCN(C)C)cc2)cc1 [Compound 331a, hydrochloride]")
"Satisfied"
>>> label_class("CN(C)CCCCC(=O)Nc1ccc(NC(=S)NC(=O)c2ccc(Br)cc2)cc1 [Compound B5, hydrochloride]")
"Not satisfied"
>>> label_class("Cc1cc(C(=O)NC(=S)Nc2ccc(NC(=O)CCCCN(C)C)cc2)ccc1Br [Compound C5, hydrochloride]")
"Not satisfied"
>>> label_class("CCCc1ccc(C(=O)NC(=S)Nc2ccc(NC(=O)CCCCN(C)C)cc2)cc1 [Compound 345c, hydrochloride]")
"Satisfied"
>>> label_class("CN(C)CCCCC(=O)Nc1ccc(NC(=S)NC(=O)c2cc(Cl)cc(Cl)c2)cc1 [Compound 360a, hydrochloride]")
"Not satisfied"
>>> label_class("CCc1ccc(C(=O)NC(=S)Nc2ccc(NC(=O)CCCCN(C)C)cc2)cc1 [Compound 345d, hydrochloride]")
"Not satisfied"
>>> label_class("COc1cccc(C(=O)NC(=S)Nc2ccc(NC(=O)CCCCN(C)C)cc2)c1 [Compound B2, hydrochloride]")
"Not satisfied"
>>> label_class("CN(C)CCCCC(=O)Nc1ccc(NC(=S)NC(=O)c2cccc(Br)c2)cc1 [Compound A6, hydrochloride]")
"Satisfied"
>>> label_class("CN(C)CCCCC(=O)Nc1ccc(NC(=S)NC(=O)c2ccccc2)cc1 [Compound B4, hydrochloride]")
"Not satisfied"
>>> label_class("COc1ccccc1C(=O)NC(=S)Nc1ccc(NC(=O)CCCCN(C)C)cc1 [Compound A3, hydrochloride]")
"Satisfied"
>>> label_class("Cc1cccc(C(=O)NC(=S)Nc2ccc(NC(=O)CCCCN(C)C)cc2)c1")
"Not satisfied"
>>> label_class("Cc1ccc(C(=O)NC(=S)Nc2ccc(NC(=O)CCCCN(C)C)cc2)cc1Br [Compound 330a, hydrochloride]")
"Satisfied"
>>> label_class("Cc1ccc(C(=O)NC(=S)Nc2ccc(NC(=O)CCCCN(C)C)cc2)cc1C [Compound C4, hydrochloride]")
"Not satisfied"
>>> label_class("CN(C)CCCCC(=O)Nc1ccc(NC(=S)NC(=O)c2ccc(Cl)cc2)cc1 [318a A1, hydrochloride]")
"Satisfied"
>>> label_class("COc1c(Cl)cc(C(=O)NC(=S)Nc2ccc(NC(=O)CCCCN(C)C)cc2)cc1Cl.Cl [Compound D3, hydrochloride]")
"Satisfied"
>>> label_class("CCCCCc1ccc(C(=O)NC(=S)Nc2ccc(NC(=O)CCCCN(C)C)cc2)cc1 [Compound 345a, hydrochloride]")
"Satisfied"
>>> label_class("CN(C)CCCCC(=O)Nc1ccc(NC(=S)NC(=O)c2ccc(N(C)C)cc2)cc1 [Compound 332a, hydrochloride]")
"Satisfied"
>>> label_class("COc1ccc(C(=O)NC(=S)Nc2ccc(NC(=O)CCCCN(C)C)cc2)cc1C(F)(F)F [Compound C6, hydrochloride]")
"Satisfied"
>>> label_class("Cc1ccc(C(=O)NC(=S)Nc2ccc(NC(=O)CCCCN(C)C)cc2)cc1 [318a A2, hydrochloride]")
"Satisfied"

====

system_name: UniProt:Q8IXJ6
experiment: SIRT2 inhibition assay (Fluor de Lys fluorescence-based assay kit)
assay_context: human recombinant enzyme
pIC50: −log10 of the molar value. Where a name gives a salt, the structure may show the parent alone.
measured_metric: pIC50

>>> measured("COc1c(Br)cc(C(=O)NC(=S)Nc2ccc(NC(=O)CCCCN(C)C)cc2)cc1Br [Compound 383a, hydrochloride]")
4.85
>>> measured("CN(C)CCCCC(=O)Nc1ccc(NC(=S)NC(=O)c2cc(F)c(F)c(F)c2)cc1 [Compound D1, hydrochloride]")
4.28
>>> measured("CN(C)CCCCC(=O)Nc1ccc(NC(=S)NC(=O)c2ccc(C(C)(C)C)c(Br)c2)cc1 [Compound 361a, hydrochloride]")
5.34
>>> measured("Cc1ccccc1C(=O)NC(=S)Nc1ccc(NC(=O)CCCCN(C)C)cc1 [Compound A1, hydrochloride]")
4.09

====

Some compounds, each annotated with its measured pIC50.
system_name: SIRT2 (Homo sapiens (Human), UniProt Q8IXJ6)
experiment: SIRT2 inhibition assay (Fluor de Lys fluorescence-based assay kit)
assay_context: human recombinant enzyme
pIC50: −log10 of the molar value. Counter-ions that a name gives are not always drawn.
measured_metric: pIC50

>>> measured("CCCCOc1c(Cl)cc(C(=O)NC(=S)Nc2ccc(NC(=O)CCCCN(C)C)cc2)cc1Cl [Compound 392a, hydrochloride]")
6.40
>>> measured("CN(C)CCCCC(=O)Nc1ccc(NC(=S)NC(=O)c2ccc(Br)cc2)cc1 [Compound B5, hydrochloride]")
4.40
>>> measured("CCOc1c(Cl)cc(C(=O)NC(=S)Nc2ccc(NC(=O)CCCCN(C)C)cc2)cc1Cl [Compound 391a, hydrochloride]")
5.52
>>> measured("Cc1cc(C(=O)NC(=S)Nc2ccc(NC(=O)CCCCN(C)C)cc2)ccc1Br [Compound C5, hydrochloride]")
4.46
>>> measured("CN(C)CCCCC(=O)Nc1ccc(NC(=S)NC(=O)c2ccc(Cl)c(Cl)c2)cc1 [Compound 311d, hydrochloride]")
4.50
>>> measured("COc1c(Cl)cc(C(=O)NC(=S)Nc2ccc(NC(=O)CCCCN(C)C)cc2)cc1Cl.Cl [Compound D3, hydrochloride]")
4.97

Just for reference, patent US9365508B2 is where these values come from.
